test system: 454973-116-R2-J3-PDC spheroids, viability, % test/control; assay: Anticancer human tumor 454973-116-R2-J3-PDC patient-derived pancreatic carcinoma cell line growth inhibition [GQUAD]; conditions: second compound 10 µM; first compound 0.316 µM; active compounds read low; spheroids with HUVEC and MSC;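 also: spheroids exposed to compounds for seven days; 100% = DMSO vehicle control viability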
experimental readout: viability, T/C (%)
Return type: number; implicit unit %.

Qu. Give the reported viability, T/C for this compound. CCCS(=O)(=O)Nc1ccc(F)c(C(=O)c2c[nH]c3ncc(-c4ccc(Cl)cc4)cc23)c1F + CN(C)c1ccc(Nc2c3ccc(NC(=O)CCN4CCCC4)cc3nc3cc(NC(=O)CCN4CCCC4)ccc23)cc1
Ans. 80.3

Qu. Give the reported viability, T/C for this compound. CCCS(=O)(=O)Nc1ccc(F)c(C(=O)c2c[nH]c3ncc(-c4ccc(Cl)cc4)cc23)c1F + Cc1[nH]c2ccc(F)cc2c1-c1nc2c3cccnc3c3ncccc3c2[nH]1
Ans. 116

Qu. Give the reported viability, T/C for this compound. Nc1ccn(C2OC(CO)C(O)C2(F)F)c(=O)n1 (stereo not given) + Cc1[nH]c2ccc(F)cc2c1-c1nc2c3cccnc3c3ncccc3c2[nH]1
Ans. 17

Qu. Give the reported viability, T/C for this compound. C#Cc1c(F)ccc2cc(O)cc(-c3ncc4c(N5CC6CCC(C5)N6)nc(OCC56CCCN5CC(F)C6)nc4c3F)c12 (stereo not given) + Cc1cnc(CNC(=O)c2c(=O)c3ccc(N4CCCN(C)CC4)nc3n3c2sc2ccccc23)cn1
Ans. 0.47

Qu. Give the reported viability, T/C for this compound. CCCS(=O)(=O)Nc1ccc(F)c(C(=O)c2c[nH]c3ncc(-c4ccc(Cl)cc4)cc23)c1F + Cc1cnc(CNC(=O)c2c(=O)c3ccc(N4CCCN(C)CC4)nc3n3c2sc2ccccc23)cn1
Ans. 28.6
